Cited source: patent US20250361288A1

Experimental System: T1, mouse HVEM extracellular domain fused with an Fc fragment at the C-terminus (mouse, UniProt Q80WM9 39-206, limits assumed)
T1 construct: extracellular domain; Bought; also called mHVEM; not shown: Fc fragment at the C-terminus
T1 sequence (looked up): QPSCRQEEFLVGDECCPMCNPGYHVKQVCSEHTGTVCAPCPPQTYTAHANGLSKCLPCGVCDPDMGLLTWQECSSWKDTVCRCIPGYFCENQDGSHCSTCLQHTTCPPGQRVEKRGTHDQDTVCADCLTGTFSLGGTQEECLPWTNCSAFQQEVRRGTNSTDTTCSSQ
Assay Explanation: phage ELISA
Endpoint Name: binding result

* LIGHT-39 (ligand, Printed mutations: L158P, L166M, L220M; Soluble protein carries an N-terminal His tag) DGPAGSWEQLIQERRSHEVNPAAHLTGANSSLTGSGGPLLWETQLGLAFLRGLSYHDGALVVTKAGYYYIYSKVQLGGVGCPLGPASTITHGMYKRTPRYPEELELLVSQQSPCGRATSSSRVWWDSSFLGGVVHLEAGEKVVVRVMDERLVRLRDGTRSYFGAFMV | binds
* LIGHT-21 (ligand, Printed mutations: S160G, T161P, L220T; Soluble protein carries an N-terminal His tag) DGPAGSWEQLIQERRSHEVNPAAHLTGANSSLTGSGGPLLWETQLGLAFLRGLSYHDGALVVTKAGYYYIYSKVQLGGVGCPLGLAGPITHGLYKRTPRYPEELELLVSQQSPCGRATSSSRVWWDSSFLGGVVHLEAGEKVVVRVTDERLVRLRDGTRSYFGAFMV | binds
* LIGHT-11 (ligand, Printed mutations: G150S, L220S; Soluble protein carries an N-terminal His tag) DGPAGSWEQLIQERRSHEVNPAAHLTGANSSLTGSGGPLLWETQLGLAFLRGLSYHDGALVVTKAGYYYIYSKVQLSGVGCPLGLASTITHGLYKRTPRYPEELELLVSQQSPCGRATSSSRVWWDSSFLGGVVHLEAGEKVVVRVSDERLVRLRDGTRSYFGAFMV | binds
* LIGHT (74-240) (ligand, Soluble protein carries an N-terminal His tag; also called wild-type human LIGHT; LIGHT (74-240) (wt)) DGPAGSWEQLIQERRSHEVNPAAHLTGANSSLTGSGGPLLWETQLGLAFLRGLSYHDGALVVTKAGYYYIYSKVQLGGVGCPLGLASTITHGLYKRTPRYPEELELLVSQQSPCGRATSSSRVWWDSSFLGGVVHLEAGEKVVVRVLDERLVRLRDGTRSYFGAFMV | binds
* LIGHT-31 (ligand, Printed mutations: S160R, T161S, L220S; Soluble protein carries an N-terminal His tag) DGPAGSWEQLIQERRSHEVNPAAHLTGANSSLTGSGGPLLWETQLGLAFLRGLSYHDGALVVTKAGYYYIYSKVQLGGVGCPLGLARSITHGLYKRTPRYPEELELLVSQQSPCGRATSSSRVWWDSSFLGGVVHLEAGEKVVVRVSDERLVRLRDGTRSYFGAFMV | binds
* LIGHT-13 (ligand, Printed mutations: S104P, G157S, H208Y, L220R; Soluble protein carries an N-terminal His tag) DGPAGSWEQLIQERRSHEVNPAAHLTGANSPLTGSGGPLLWETQLGLAFLRGLSYHDGALVVTKAGYYYIYSKVQLGGVGCPLSLASTITHGLYKRTPRYPEELELLVSQQSPCGRATSSSRVWWDSSFLGGVVYLEAGEKVVVRVRDERLVRLRDGTRSYFGAFMV | binds
* LIGHT-17 (ligand, Printed mutations: H208Y, Q117N; Soluble protein carries an N-terminal His tag) DGPAGSWEQLIQERRSHEVNPAAHLTGANSSLTGSGGPLLWETNLGLAFLRGLSYHDGALVVTKAGYYYIYSKVQLGGVGCPLGLASTITHGLYKRTPRYPEELELLVSQQSPCGRATSSSRVWWDSSFLGGVVYLEAGEKVVVRVLDERLVRLRDGTRSYFGAFMV | binds
* LIGHT-15 (ligand, Printed mutations: Q117E, E175K, K214E, L227T; Soluble protein carries an N-terminal His tag) DGPAGSWEQLIQERRSHEVNPAAHLTGANSSLTGSGGPLLWETELGLAFLRGLSYHDGALVVTKAGYYYIYSKVQLGGVGCPLGLASTITHGLYKRTPRYPKELELLVSQQSPCGRATSSSRVWWDSSFLGGVVHLEAGEEVVVRVLDERLVRTRDGTRSYFGAFMV | binds
* LIGHT-20 (ligand, Printed mutations: S160A, L220S, E222D; Soluble protein carries an N-terminal His tag) DGPAGSWEQLIQERRSHEVNPAAHLTGANSSLTGSGGPLLWETQLGLAFLRGLSYHDGALVVTKAGYYYIYSKVQLGGVGCPLGLAATITHGLYKRTPRYPEELELLVSQQSPCGRATSSSRVWWDSSFLGGVVHLEAGEKVVVRVSDDRLVRLRDGTRSYFGAFMV | binds
* LIGHT-41 (ligand, Printed mutations: G150R, S160G, L220S; Soluble protein carries an N-terminal His tag) DGPAGSWEQLIQERRSHEVNPAAHLTGANSSLTGSGGPLLWETQLGLAFLRGLSYHDGALVVTKAGYYYIYSKVQLRGVGCPLGLAGTITHGLYKRTPRYPEELELLVSQQSPCGRATSSSRVWWDSSFLGGVVHLEAGEKVVVRVSDERLVRLRDGTRSYFGAFMV | binds
* LIGHT-48 (ligand, Printed mutations: L120P, L220R; Soluble protein carries an N-terminal His tag) DGPAGSWEQLIQERRSHEVNPAAHLTGANSSLTGSGGPLLWETQLGPAFLRGLSYHDGALVVTKAGYYYIYSKVQLGGVGCPLGLASTITHGLYKRTPRYPEELELLVSQQSPCGRATSSSRVWWDSSFLGGVVHLEAGEKVVVRVRDERLVRLRDGTRSYFGAFMV | binds
* LIGHT-44 (ligand, Printed mutations: G150R, L158P, L220S; Soluble protein carries an N-terminal His tag) DGPAGSWEQLIQERRSHEVNPAAHLTGANSSLTGSGGPLLWETQLGLAFLRGLSYHDGALVVTKAGYYYIYSKVQLRGVGCPLGPASTITHGLYKRTPRYPEELELLVSQQSPCGRATSSSRVWWDSSFLGGVVHLEAGEKVVVRVSDERLVRLRDGTRSYFGAFMV | binds
